system: Saccharomyces cerevisiae; experiment: protein stability index of tFT-peptide fusion (C-terminal peptide) (PSI (0-1 scale)); higher = more stable (slower turnover); conditions: genetic background: wild type; temperature: 30 C;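 also: PSI is a weighted mean of sequencing reads over stability bins, variants kept only with over 10 reads, mCherry proximal and sfGFP distal, peptide attached via GGGS linker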
Measurement Kind: protein stability index
Reply: number alone, nothing else.

## Input // protein stability index lookup, key: `RGSGCAFLFAWF`
## Output 0.654

## Input // protein stability index lookup, key: `LTACLRRTNTLM`
## Output 0.503

## Input // protein stability index lookup, key: `VHCNLKLDASNF`
## Output 0.719

## Input // protein stability index lookup, key: `SCLRFCSFGSPF`
## Output 0.757

## Input // protein stability index lookup, key: `CVISLVTAVRLF`
## Output 0.464

## Input // protein stability index lookup, key: `YVELTGRITTKL`
## Output 0.716

## Input // protein stability index lookup, key: `YPARSPPSPLSL`
## Output 0.686

## Input // protein stability index lookup, key: `LQSPGAFFSVSK`
## Output 0.7

## Input // protein stability index lookup, key: `LVGSLGVYGVYV`
## Output 0.665

## Input // protein stability index lookup, key: `DDRFNVGNLPQG`
## Output 0.672

## Input // protein stability index lookup, key: `CSPSPARPPPPR`
## Output 0.684

## Input // protein stability index lookup, key: `PLPPRPSPPPPL`
## Output 0.705

## Input // protein stability index lookup, key: `QSSWVGRGVRGG`
## Output 0.647

## Input // protein stability index lookup, key: `AGRLEGGRRWRV`
## Output 0.69

## Input // protein stability index lookup, key: `ENPSTIDLSARS`
## Output 0.656

## Input // protein stability index lookup, key: `LLLIGISFLIFY`
## Output 0.352

## Input // protein stability index lookup, key: `ERGALNRKDTRG`
## Output 0.662

## Input // protein stability index lookup, key: `QLRRPPPPLPLP`
## Output 0.714

## Input // protein stability index lookup, key: `IVFFVLFRFWRF`
## Output 0.32

## Input // protein stability index lookup, key: `PPAPRPPSPRPP`
## Output 0.693

## Input // protein stability index lookup, key: `DSQAEPGLSARL`
## Output 0.796

## Input // protein stability index lookup, key: `FLRLSFLIFPLH`
## Output 0.498

## Input // protein stability index lookup, key: `SLSPLPSPPPPP`
## Output 0.7

## Input // protein stability index lookup, key: `AGGLGGSILCLV`
## Output 0.556

## Input // protein stability index lookup, key: `LARGGAAIGGES`
## Output 0.729

## Input // protein stability index lookup, key: `ESVKVTIAKVMK`
## Output 0.708

## Input // protein stability index lookup, key: `FSPAPPLLLHPS`
## Output 0.714

## Input // protein stability index lookup, key: `WGDGRGRVWEIS`
## Output 0.674

## Input // protein stability index lookup, key: `KKTLWRKITMQK`
## Output 0.719

## Input // protein stability index lookup, key: `CLFLNCRFYMFL`
## Output 0.821

## Input // protein stability index lookup, key: `KKNNKKNNKKKQ`
## Output 0.678

## Input // protein stability index lookup, key: `VSDGGCIFHRRT`
## Output 0.704

## Input // protein stability index lookup, key: `SGSAPFLRTSKL`
## Output 0.685

## Input // protein stability index lookup, key: `TSSRHNEVIKGC`
## Output 0.706

## Input // protein stability index lookup, key: `GQTMDLRKCTGP`
## Output 0.644

## Input // protein stability index lookup, key: `LVRILSRSVVRT`
## Output 0.697

## Input // protein stability index lookup, key: `SRHWCHDTGTLT`
## Output 0.7

## Input // protein stability index lookup, key: `AVRRRGGLSVGV`
## Output 0.654

## Input // protein stability index lookup, key: `GLRTPHASVPPQ`
## Output 0.66

## Input // protein stability index lookup, key: `FRRSLILPLPPT`
## Output 0.681

## Input // protein stability index lookup, key: `SPPLHTFSLPFY`
## Output 0.669
